The values you see were collected from patent US20180016327A1.

Would you mind telling me the reported % binding (parent = 100) of each entry?
# study.target: T1, human C5 (human, UniProt P01031 19-673; P01031 678-1676, Beta and alpha chains are disulfide-linked and the protein is glycosylated.)
# T1 construct: Either in-house recombinant C5 or plasma derived C5 (CALBIOCHEM) was used; also called recombinant human C5; plasma derived human C5
# assay.comment: Biacore, captured antibody, pH 7.4, 37 C;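 note: biacore binding response of anti-C5 antibody light chain variants captured on chip with human C5 injected, ACES running buffer containing 1.2 mM CaCl₂, parent light chain antibody set to 100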
Provide only the numeric value, understood in %.

**Q:** Specify % binding (parent = 100) for CFP0015 15L 50D (antibody, V domains shown) VH: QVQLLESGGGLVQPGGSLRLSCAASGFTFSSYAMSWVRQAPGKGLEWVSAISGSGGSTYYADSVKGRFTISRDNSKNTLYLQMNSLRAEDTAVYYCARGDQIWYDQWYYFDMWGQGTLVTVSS VL: DIQMTQSPSSLSASVGDRVTITCRASQSIEDDLAWYQQKPGKAPKLLIYDASNLQSGVPSRFSGSGSGTDFTLTISSLQPEDFATYYCQQYDSSPLTFGQGTKVEIK and stop.
**A:** 131

**Q:** Specify % binding (parent = 100) for CFP0018 18L 96F (antibody, V domains shown) VH: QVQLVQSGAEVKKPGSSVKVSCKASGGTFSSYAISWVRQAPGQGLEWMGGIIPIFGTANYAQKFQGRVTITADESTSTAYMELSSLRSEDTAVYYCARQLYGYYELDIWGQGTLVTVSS VL: DIQMTQSPSSLSASVGDRVTITCRASQSISDDLAWYQQKPGKAPKLLIYEASSLQSGVPSRFSGSGSGTDFTLTISSLQPEDFATYYCQQYNSYPFTFGQGTKVEIK and stop.
**A:** 31.8
